- Target Desc: mGluR1 (Rattus norvegicus, UniProt P23385)
- Sequence (P23385 19-1199): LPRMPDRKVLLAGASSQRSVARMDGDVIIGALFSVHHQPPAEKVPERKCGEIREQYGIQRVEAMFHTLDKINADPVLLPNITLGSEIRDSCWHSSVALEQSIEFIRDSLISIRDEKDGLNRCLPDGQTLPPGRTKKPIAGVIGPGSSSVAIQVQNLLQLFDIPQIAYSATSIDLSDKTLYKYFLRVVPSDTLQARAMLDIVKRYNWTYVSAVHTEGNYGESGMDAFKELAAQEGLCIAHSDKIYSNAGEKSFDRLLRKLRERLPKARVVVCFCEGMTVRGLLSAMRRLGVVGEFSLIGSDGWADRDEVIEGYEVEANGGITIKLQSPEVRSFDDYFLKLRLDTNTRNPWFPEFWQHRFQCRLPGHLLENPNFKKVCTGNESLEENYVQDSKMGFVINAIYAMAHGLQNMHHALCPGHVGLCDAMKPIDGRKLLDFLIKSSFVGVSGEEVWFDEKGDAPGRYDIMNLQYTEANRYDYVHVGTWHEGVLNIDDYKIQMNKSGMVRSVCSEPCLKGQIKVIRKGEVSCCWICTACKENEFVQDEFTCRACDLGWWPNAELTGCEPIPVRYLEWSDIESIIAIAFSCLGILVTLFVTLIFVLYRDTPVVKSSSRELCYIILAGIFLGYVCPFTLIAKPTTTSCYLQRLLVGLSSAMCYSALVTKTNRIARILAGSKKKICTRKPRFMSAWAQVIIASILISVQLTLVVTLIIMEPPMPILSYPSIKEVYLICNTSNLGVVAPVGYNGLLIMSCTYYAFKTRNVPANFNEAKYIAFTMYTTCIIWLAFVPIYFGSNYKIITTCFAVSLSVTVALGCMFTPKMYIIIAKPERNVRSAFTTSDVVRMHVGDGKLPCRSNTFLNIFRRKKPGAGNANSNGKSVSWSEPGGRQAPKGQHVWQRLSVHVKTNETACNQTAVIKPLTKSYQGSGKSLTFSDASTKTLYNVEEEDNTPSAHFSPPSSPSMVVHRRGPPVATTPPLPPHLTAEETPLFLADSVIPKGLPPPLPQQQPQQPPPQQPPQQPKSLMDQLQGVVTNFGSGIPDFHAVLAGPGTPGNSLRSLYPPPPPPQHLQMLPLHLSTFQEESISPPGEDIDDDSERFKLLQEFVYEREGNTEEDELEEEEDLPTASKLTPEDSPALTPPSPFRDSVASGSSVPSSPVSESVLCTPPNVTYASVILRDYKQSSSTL
pKi: −log10 of the molar value.
Property: pKi

• N#Cc1cccc(S(=O)(=O)c2sc3nc(O)ccc3c2-c2ccc(Cl)cc2)c1 = > 6.30
